// pIC50 lookup, one value per entry
# measured-target: hT2R54 (Homo sapiens, UniProt P59534)
# Construct: expressed in transfected cells; it overexpresses a promiscuous G protein
# Sequence (P59534 1-338): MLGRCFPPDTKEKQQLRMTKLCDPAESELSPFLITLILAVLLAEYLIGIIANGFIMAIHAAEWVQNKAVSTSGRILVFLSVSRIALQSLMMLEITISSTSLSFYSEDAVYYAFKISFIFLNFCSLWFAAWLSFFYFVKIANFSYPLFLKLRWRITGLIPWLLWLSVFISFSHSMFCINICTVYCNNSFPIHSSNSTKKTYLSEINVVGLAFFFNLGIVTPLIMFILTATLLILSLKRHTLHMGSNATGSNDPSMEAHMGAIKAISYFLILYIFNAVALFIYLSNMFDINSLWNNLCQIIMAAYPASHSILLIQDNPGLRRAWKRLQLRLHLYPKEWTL
# test-description: Cell-based assay for measuring hT2R54 inhibition (FLIPR calcium, Fluo4AM, acetaminophen as bitter agonist)
# condition: Table 2; cells stably expressing hT2R54 and a promiscuous G protein; read-out: hT2R54 IC50
pIC50 here is simply -log10 of the concentration when that concentration is written in mol/L.

Some solved entries appear below for comparison.
COc1cc2c(cc1NC(=O)CN1CCN(C(=O)C3CCOC3)CC1)OCO2 (stereo not shown)    5.74
CC(=O)c1cc2c(cc1NC(=O)CN1CCN(C(=O)c3c[nH]nn3)CC1)OCO2    7.22

[ask] Any idea what pIC50 came out for CC(=O)c1cc2c(cc1NC(=O)CN1CCN(C(=O)c3ccon3)CC1)OCO2 on hT2R54 (Homo sapiens, UniProt P59534)?
[reply] 7.70

[ask] Then what about the compound COCC(=O)N1CCN(CC(=O)Nc2cc3c(cc2C(C)=O)OCO3)CC1 ?
[reply] 7.22
